Biological target: T1, LIN7B, Q9HAP6
T1 sequence (Q9HAP6 88-185, limits assumed, looked up): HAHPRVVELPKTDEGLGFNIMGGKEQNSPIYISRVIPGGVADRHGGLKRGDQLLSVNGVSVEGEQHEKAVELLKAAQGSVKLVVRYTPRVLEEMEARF
Assay: holdup assay
Design: key: below the threshold = too weak to quantify, mostly under pKd 3.1 to 4
Settings: plain residues with an end cap or a label only (N-terminal biotin on a linker: ado-ado)
observedProperty: pKd

Please review the entries below; each comes with its answer.
QKAPTKEFYA [SDC2, P34741]    3.53
VKRNSKETVV [MARCHF3, Q86UD3]    3.86
PPGKHLVTEV [KCNA7, Q96RP8]    3.97
SPDRDRESIV [SCN5A, Q14524]    below the threshold
GIKKITSTAL [RPS6KA3, P51812]    below the threshold
LESTTVGTSV [KARS1, Q15046]    3.79

Hi, could you look up pKd for each item in my list?
1. APIAGFSSFV [SDK2, Q58EX2]
2. NVYGIESVKI [GRIA2, P42262]

1: below the threshold; 2: 3.74

Values from paper PMC9482650
